TARGET ENTITY: human hisTRIM7-PRYSPRY (Homo sapiens, UniProt Q9C029)
EXPERIMENT DESCRIPTION: ITC binding to human TRIM7 PRYSPRY (wild type)
CONDITIONS: KD, ITC, one-site model, 15 °C, 50 mM phosphate pH 6.5, 1 mM DTT; TRIM7 500 µM, ligand 100 µM (peptide 50 µM); representative trace and fit
Ends that are not written are not given here.
OBSERVATION TYPE: pKd
Convention used: pKd is expressed as -log10 of the molar concentration.

[ask] Any idea what its pKd is? The sequence is DNIKKKLDTYLQ [rbGYG322-333]
[reply] 4.68
